- System: HCV 1b genotype
- assayName: HCV replicon assay (HCV-neo replicon cells, wild-type)
- Type: cell-based, Hepatitis C virus
- runConditions: Hepatitis C virus, HCV 1b genotype replicon; class symbol; read-out: EC50 Range against HCV 1b
pEC50: −log10 of the molar value.
Measured pEC50 by item

1. O=C(Nc1ccc(-c2nnc(-c3ccc(NC(=O)[C@@H]4CCCN4C(=O)[C@@H](O)c4ccccc4)cc3)o2)cc1)[C@@H]1CCCN1C(=O)[C@@H](O)c1ccccc1 [RK-17] ... 6.00 to 7.00
2. CC(=O)O[C@H](C(=O)N1CCC[C@H]1C(=O)Nc1ccc(-c2ccc(-c3ccc(NC(=O)[C@@H]4CCCN4C(=O)[C@@H](OC(C)=O)c4ccccc4)cc3)o2)cc1)c1ccccc1 ... 6.00 to 7.00
3. C[C@H](NC(=O)OCc1ccccc1)C(=O)Nc1ccc(-c2nc(CC(=O)O)oc2-c2ccc(NC(=O)[C@H](C)NC(=O)OCc3ccccc3)cc2)cc1 [OL-1] ... 5.00 to 6.00
4. CC(=O)N1CCC[C@H]1C(=O)Nc1ccc(-c2nc(-c3ccc(NC(=O)[C@@H]4C=CCN4C(=O)c4cccs4)cc3)cs2)cc1 [Example D-47] ... 5.00 to 6.00
5. COCC[C@H](NC(=O)Cc1ccccc1)C(=O)Nc1ccc(-c2cnc(-c3ccc(NC(=O)[C@H](CCOC)NC(=O)Cc4ccccc4)cc3)o2)cc1 [JG-15] ... 6.00 to 7.00

We next turn to a different compound, shown below.
What value of pEC50 has been reported for the following compound? O=C(Nc1ccc(-c2nnc(-c3ccc(NC(=O)[C@@H]4CCC(=O)N4C(=O)OCc4ccccc4)cc3)o2)cc1)[C@@H]1CCC(=O)N1C(=O)OCc1ccccc1 [RK-2]
5.00 to 6.00
